Test: Oral Bioavailability in rat
Format: ADME, organism-based
Conditions: in vivo
// reported bioavailability per item
Give a bare numeral; the unit % is implied.

| MOLECULE | bioavailability [%] |
| --- | --- |
| CC(COc1ccc(-c2ccc(C#N)cc2)cc1)N(O)C=O (configuration not stated) | 33 |

Next, consider the following molecule.
QUERY: # input molecule: CC(COc1ccc(-c2ccc(C#N)cc2)cc1)C(=O)NO (configuration not stated) ; wanted: its bioavailability
RESULT: 7

---

// reported pIC50 per item
Target: 72 kDa type IV collagenase (Homo sapiens)
Sequence (P08253 whole entry): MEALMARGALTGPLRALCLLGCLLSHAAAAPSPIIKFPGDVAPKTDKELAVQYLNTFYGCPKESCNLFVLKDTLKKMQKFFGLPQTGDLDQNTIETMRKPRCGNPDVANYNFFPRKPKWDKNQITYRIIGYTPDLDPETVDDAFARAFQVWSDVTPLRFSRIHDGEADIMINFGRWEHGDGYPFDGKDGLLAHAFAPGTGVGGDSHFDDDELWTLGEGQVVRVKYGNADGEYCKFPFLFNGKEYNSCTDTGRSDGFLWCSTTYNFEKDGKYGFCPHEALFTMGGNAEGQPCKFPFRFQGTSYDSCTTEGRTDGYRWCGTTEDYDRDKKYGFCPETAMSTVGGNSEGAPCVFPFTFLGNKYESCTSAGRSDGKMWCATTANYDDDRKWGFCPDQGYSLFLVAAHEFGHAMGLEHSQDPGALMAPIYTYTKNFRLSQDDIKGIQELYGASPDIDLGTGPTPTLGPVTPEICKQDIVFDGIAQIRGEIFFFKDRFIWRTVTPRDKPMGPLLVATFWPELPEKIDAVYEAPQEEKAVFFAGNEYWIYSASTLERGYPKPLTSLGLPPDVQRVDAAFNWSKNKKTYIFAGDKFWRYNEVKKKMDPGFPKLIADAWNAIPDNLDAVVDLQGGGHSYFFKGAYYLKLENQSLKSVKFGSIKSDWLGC
On this scale, pIC50 is minus log10 of a concentration expressed in M (mol/L).

Sample records with pIC50:
| COMPOUND | TARGET OR SYSTEM | pIC50 |
| --- | --- | --- |
| CN1C(=O)N(CC(COc2ccc(-c3ccc(C#N)cc3)cc2)N(O)C=O)C(=O)C1(C)C (stereo unspecified) | 72 kDa type IV collagenase (Homo sapiens) | 4.24 |
| N#Cc1ccc(-c2ccc(OCCC(=O)NO)cc2)cc1 | 72 kDa type IV collagenase (Homo sapiens) | 7.49 |
| CCN1C(=O)N(CC(COc2ccc(-c3ccc(C#N)cc3)cc2)N(O)C=O)C(=O)C1(C)C (stereo unspecified) | 72 kDa type IV collagenase (Homo sapiens) | 4.92 |
| Cc1ccc(=O)n(CC(COc2ccc(-c3ccc(C#N)cc3)cc2)N(O)C=O)n1 (stereo unspecified) | 72 kDa type IV collagenase (Homo sapiens) | 5.47 |

QUERY: Tell me reported pIC50 for CC(COc1ccc(-c2ccc(C#N)cc2)cc1)N(O)C=O (stereo unspecified) , tested with 72 kDa type IV collagenase (Homo sapiens).
RESULT: 4.12

QUERY: Tell me reported pIC50 for CC(=O)N(O)CCOc1ccc(-c2ccc(C#N)cc2)cc1 , tested with 72 kDa type IV collagenase (Homo sapiens).
RESULT: 5.23
